Cited source: PubChem BioAssay (NCI)

# key: entry, value: growth inhibition
# procedure_details: NCI Yeast Anticancer Drug Screen. Data for the bub3 strain (AID 167)
# experimental_context: S. cerevisiae bub3 mutant strain, at 5.0 µM (retest, dose inferred, filed as 0.5), hits give high values
The panel holds about 79,000 compounds, 15% with a hit somewhere; the sample as a whole holds those more often.
measurement_kind: growth inhibition (%)

{"columns": ["compound", "u", "value"],
 "data": [
  ["CC(C)(Br)C(=O)c1ccc([N+](=O)[O-])o1", "%", 42],
  ["O=C(O)/C(=C/c1ccccc1)c1ccccc1.[Ag]", "%", 100],
  ["Cc1ccc(C2CC(c3cccc([N+](=O)[O-])c3)=Nc3ccccc3S2)cc1 (stereo not given)", "%", 11],
  ["NC(CSSCC(N)C(=O)Nc1ccc2ccccc2c1)C(=O)Nc1ccc2ccccc2c1 (stereo not given)", "%", 37],
  ["CSc1nc2nn(Cc3ccccc3)cc2c(=O)[nH]1", "%", 27],
  ["CCc1c(C)[nH]c2c([N+](=O)[O-])cccc12", "%", -13],
  ["CSc1nc(C)c(C(=O)CCN2CCOCC2)s1", "%", -12],
  ["Cc1cn(C2OC(CO)C(O)C(O)C2N)c(=O)[nH]c1=O (stereo not given)", "%", -8],
  ["O=[N+]([O-])c1c(Cl)cccc1-c1c[nH]cc1Cl", "%", 6],
  ["Fc1ccc(NC(=S)SCc2ccc(Cl)cc2)c(F)c1", "%", 19],
  ["CCCCCCCCCCCCCCCC1=NCCN1C", "%", 48],
  ["O=C(Nc1ccc(Cl)cc1)Nc1cc(Cl)ccc1O", "%", -4],
  ["Cc1cccc2c(CC(=O)O)c[nH]c12", "%", 93],
  ["COC(=O)N1C2C=CC(=O)C(C=C2)N1C(=O)OC (stereo not given)", "%", -1],
  ["C/C=C\\c1cc2c(cc1CC#N)OCO2", "%", 1],
  ["O=[N+]([O-])c1ccc(O)c(/C=N\\NC(=S)Nc2ccc3cn[nH]c3c2)c1", "%", -2],
  ["CCOCCNCc1ccc(Cl)c(Cl)c1", "%", -67],
  ["CN=C(N)N/N=C(\\C)c1ccc2c(c1)Cc1cc(Cl)ccc1-2", "%", 7],
  ["CC(C)(C)C(=O)CC(=O)C(F)(F)C(F)(F)C(F)(F)F.[Ag]", "%", 98],
  ["Cc1ccc(SSCCCCS(=O)O)cc1", "%", 13],
  ["N/N=C(/N)SCCCCCCCCCCS/C(N)=N/N", "%", -6],
  ["COc1ccc(/C(O)=C/c2nc3ccc([N+](=O)[O-])cc3[nH]c2=O)cc1", "%", 2],
  ["Nc1nc(=O)n(C2OC(CO)C(O)C2O)cc1[N+](=O)[O-] (stereo not given)", "%", -7],
  ["COc1ccc(C(C)c2cc3c(cc2O)OCO3)cc1 (stereo not given)", "%", -22],
  ["CCCCC#CC(=O)OCCC", "%", 1]
]}

---

# procedure_details: NCI Yeast Anticancer Drug Screen. Data for the sgs1 mgt1 strain (AID 161);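 note: 0% = growth of cultures given vehicle only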
# experimental_context: S. cerevisiae sgs1 mgt1 strain, at 5.0 µM (retest, dose inferred, filed as 0.5)
The panel holds about 79,000 compounds, 15% with a hit somewhere; the sample as a whole holds those more often. Active and inactive are the calls of the source. No stated cut-off is given here; in the data, active means growth inhibition above about 70%; inactive means the rest.
Outcome codes: active, inactive

{"columns": ["compound", "discrete_label"],
 "data": [
  ["O=C(Nc1ccccc1O)/C(Cl)=C/Cl", "inactive"],
  ["C=C1CC[C@@H](Br)C(C)(C)[C@]12CCC(C)(O)C(Cl)C2 (stereo partly drawn)", "inactive"],
  ["CCOC(=O)C1CSC(c2c(CO)cnc(C)c2O)N1 (stereo not drawn)", "inactive"],
  ["COc1ccc(C2N(Cc3ccc(Cl)cc3)CCN2Cc2ccc(Cl)cc2)cc1", "inactive"],
  ["Cc1[nH]nc(C(=O)N(C)C)c1N=NN(C)C", "inactive"],
  ["CCOC(=O)c1[nH]c(Br)c(-c2ccc(OC)c(OC)c2)c1Br", "inactive"],
  ["O=C1C=CC(=O)C(c2ccccc2)=C1", "inactive"],
  ["COC(=O)CCC(C)C1CCC2C3CCC4CC(SC(=N)N)CCC4(C)C3CC(O)C12C (stereo not drawn)", "active"],
  ["CCNCC(O)COc1ccc2c(c1)[n+]([O-])nc(N)[n+]2[O-] (stereo not drawn)", "inactive"],
  ["COc1ccc(/C(C#N)=C/c2ccncc2)cc1", "inactive"],
  ["CC(C)c1ccc2c(c1)CC[C@@H]1[C@](C)(CO)CCC[C@]21C", "inactive"],
  ["COc1cc(/C=C/C2=C(C)C(=O)CC(c3cc(OC)c(OC)c(OC)c3)C2C)cc(OC)c1OC (stereo not drawn)", "inactive"],
  ["Cn1c(CN(Cc2nc3ccccc3n2C)Cc2nc3ccccc3n2C)nc2ccccc21", "inactive"],
  ["O=C(O)CCCCCCCCC(=O)O.[Ag]", "active"],
  ["Cc1cc(C)c(S(=O)(=O)n2ccnc2)c(C)c1", "inactive"],
  ["CC(C)(C)C1CCC(SCCO)CC1 (stereo not drawn)", "inactive"],
  ["O=C1/C(=C/c2ccc(Cl)cc2)CCC/C1=C\\c1ccc(O)c(CN2CCCCC2)c1", "inactive"],
  ["N=Cc1cc([N+](=O)[O-])ccc1O", "inactive"],
  ["Nc1cc(Br)cc2c1[nH]c1ccc(Br)cc12", "inactive"],
  ["Nc1nc(N)c(C(=O)SCc2ccccc2)nc1Cl", "inactive"],
  ["NC(=O)NC(=O)N/N=C/c1ccc([N+](=O)[O-])o1", "inactive"],
  ["O=[N+]([O-])c1ccc(SCc2ccccc2)c2nonc12", "inactive"],
  ["c1ccc2cc3c(ccc4cccc[n+]43)cc2c1", "inactive"],
  ["O=C1C=CC(=O)C2C3C=CC(CC3)C12 (stereo not drawn)", "inactive"],
  ["ON=C1Cc2ccccc2-c2ccccc2C1", "inactive"],
  ["CC1(C)CC(=O)C2=C(C1)OC1=C(CC(C)(C)CC1=O)C2c1ccccc1[N+](=O)[O-] (stereo not drawn)", "inactive"],
  ["Cc1cc(O)cc2c1c(=O)c1ccccc1n2C", "inactive"],
  ["Oc1ccc(N=Nc2ccccc2)c(O)c1.Oc1ccc(N=Nc2ccccc2)c(O)c1.[Cu]", "inactive"],
  ["CCCCCCCCCCCCCCNCCC(=O)O", "inactive"],
  ["O=C(O)CC1c2ccc3ccccc3c2CCC1c1ccccc1 (stereo not drawn)", "inactive"],
  ["O=C(Nc1ccccc1)OCCCCl", "inactive"],
  ["CCCCCCCCC1OC1CCCCCCCC(=O)OCC1CO1 (stereo not drawn)", "inactive"],
  ["Clc1ccc(SCCN2CCN(CCSc3ccc(Cl)cc3)CC2)cc1", "active"],
  ["O=C1c2cc(O)ccc2C(=O)c2c1ccc(O)c2O", "inactive"],
  ["O=C(c1ccccc1)c1ccc(O)cc1O", "inactive"],
  ["O=[N+]([O-])c1cnc(Sc2cncc[n+]2[O-])s1", "active"],
  ["O=C(/C=C/c1ccc2c(c1)OCO2)c1ccc(O)cc1", "inactive"],
  ["Nc1ccc(Oc2ccc(-c3ccccc3)cc2)c(Cl)c1", "active"],
  ["COC(=O)c1ccc(C)cc1CC1Cc2cc(C)ccc2C1=O (stereo not drawn)", "inactive"],
  ["COc1cccc(NC(=S)NC(Cc2ccccc2)c2ccccc2)c1 (stereo not drawn)", "inactive"],
  ["CS(=O)(=O)OCCN(CCOS(C)(=O)=O)c1ccc(C=Nc2ccc(-c3csc(-c4ccc(Br)cc4)n3)cc2)c(Cl)c1", "inactive"],
  ["CSc1ccc(NC(=S)SC(C)C)cc1Cl", "inactive"],
  ["Oc1c(Cl)cccc1-c1ccccc1", "inactive"],
  ["COc1ccc2nc3cc(Cl)ccc3c(NCCC[N+](C)(C)CCCCCCCCCCCCCCCC[N+](C)(C)CCCNc3c4ccc(Cl)cc4nc4ccc(OC)cc34)c2c1", "active"],
  ["CC(=O)CC1(O)C(=O)Nc2ccc(Br)cc21 (stereo not drawn)", "inactive"],
  ["CCc1cccc(C)c1NC(=O)C(=O)C(C#N)c1ccc(C)cc1 (stereo not drawn)", "inactive"],
  ["Oc1c(Br)cc(Cl)cc1Br", "inactive"],
  ["Nc1ccc(-c2ccc(N)cc2S(=O)(=O)O)c(S(=O)(=O)O)c1", "inactive"]
]}
